# Test system: 254851-301-R-J1-PDC spheroids, viability % test/control
# assayComment: Anticancer human tumor 254851-301-R-J1-PDC patient-derived colon carcinoma cell line growth inhibition [TAK]
# measurementSetup: second compound 30 µM; first compound 0.000316 µM; stronger effect = lower value; spheroids with HUVEC and MSC
Listing of entries alongside the reported viability, T/C.
propertyName: viability, T/C (%)

1) COC1CC2CCC(C)C(O)(O2)C(=O)C(=O)N2CCCCC2C(=O)OC(C(C)CC2CCC(OCCO)C(OC)C2)CC(=O)C(C)C=C(C)C(O)C(OC)C(=O)C(C)CC(C)C=CC=CC=C1C (centres undefined) + CC(C)NCC(C(=O)N1CCN(c2ncnc3c2C(C)CC3O)CC1)c1ccc(Cl)cc1    82.7
2) CC(C)n1nc(-c2ccc3oc(N)nc3c2)c2c(N)ncnc21 + CC(C)NCC(C(=O)N1CCN(c2ncnc3c2C(C)CC3O)CC1)c1ccc(Cl)cc1    88.1
3) CC(C)CC(NC(=O)CNC(=O)c1cc(Cl)ccc1Cl)B1OC(=O)CC(CC(=O)O)(C(=O)O)O1 (centres undefined) + CC(C)NCC(C(=O)N1CCN(c2ncnc3c2C(C)CC3O)CC1)c1ccc(Cl)cc1    78.2
4) CC(C)CC(NC(=O)C(Cc1ccccc1)NC(=O)c1cnccn1)B(O)O (centres undefined) + CC(C)NCC(C(=O)N1CCN(c2ncnc3c2C(C)CC3O)CC1)c1ccc(Cl)cc1    94.4

###

# System: 254851-301-R-J1-PDC spheroids, viability % test/control
# assayComment: Anticancer human tumor 254851-301-R-J1-PDC cell line growth inhibition [TAK];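 further: spheroids exposed to drugs for seven days before viability readout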
# measurementSetup: compound alone; run of 03/19/2020; spheroids with HUVEC and MSC
propertyName: IC50

1. CC(C)NCC(C(=O)N1CCN(c2ncnc3c2C(C)CC3O)CC1)c1ccc(Cl)cc1 (stereo unspecified)    > 30 µM

###

# Tested on: 254851-301-R-J1-PDC spheroids, viability % test/control
# assayComment: Anticancer human tumor 254851-301-R-J1-PDC cell line growth inhibition [TAK];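 further: spheroids exposed to drugs for seven days before viability readout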
# measurementSetup: curve of first compound; second compound 0.3 µM; spheroids with HUVEC and MSC
propertyName: IC50 (nM)

1) CC(C)CC(NC(=O)CNC(=O)c1cc(Cl)ccc1Cl)B1OC(=O)CC(CC(=O)O)(C(=O)O)O1 (stereo not given) + CC(C)NCC(C(=O)N1CCN(c2ncnc3c2C(C)CC3O)CC1)c1ccc(Cl)cc1    53.7
2) CC(=O)Nc1cccc(-n2c(=O)n(C3CC3)c(=O)c3c(Nc4ccc(I)cc4F)n(C)c(=O)c(C)c32)c1 + CC(C)NCC(C(=O)N1CCN(c2ncnc3c2C(C)CC3O)CC1)c1ccc(Cl)cc1    17.6
3) CC(C)n1nc(-c2ccc3oc(N)nc3c2)c2c(N)ncnc21 + CC(C)NCC(C(=O)N1CCN(c2ncnc3c2C(C)CC3O)CC1)c1ccc(Cl)cc1    41.9
4) Cn1cnc2c(F)c(Nc3ccc(Br)cc3Cl)c(C(=O)NOCCO)cc21 + CC(C)NCC(C(=O)N1CCN(c2ncnc3c2C(C)CC3O)CC1)c1ccc(Cl)cc1    1600

###

# Test system: 254851-301-R-J1-PDC spheroids, viability % test/control
# assayComment: Anticancer human tumor 254851-301-R-J1-PDC cell line growth inhibition [TAK];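 further: spheroids exposed to drugs for seven days before viability readout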;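 on viability, T/C: 100% = DMSO vehicle control viability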
# measurementSetup: second compound 0.949 µM; first compound 0.000316 µM; stronger effect = lower value; spheroids with HUVEC and MSC
propertyName: viability, T/C

1. CC(C)n1nc(-c2ccc3oc(N)nc3c2)c2c(N)ncnc21 + CC(C)NCC(C(=O)N1CCN(c2ncnc3c2C(C)CC3O)CC1)c1ccc(Cl)cc1    102%
2. CC(C)CC(NC(=O)CNC(=O)c1cc(Cl)ccc1Cl)B1OC(=O)CC(CC(=O)O)(C(=O)O)O1 (centres undefined) + CC(C)NCC(C(=O)N1CCN(c2ncnc3c2C(C)CC3O)CC1)c1ccc(Cl)cc1    98.6%
3. COC1CC2CCC(C)C(O)(O2)C(=O)C(=O)N2CCCCC2C(=O)OC(C(C)CC2CCC(OCCO)C(OC)C2)CC(=O)C(C)C=C(C)C(O)C(OC)C(=O)C(C)CC(C)C=CC=CC=C1C (centres undefined) + CC(C)NCC(C(=O)N1CCN(c2ncnc3c2C(C)CC3O)CC1)c1ccc(Cl)cc1    115%
4. CC(C)CC(NC(=O)C(Cc1ccccc1)NC(=O)c1cnccn1)B(O)O (centres undefined) + CC(C)NCC(C(=O)N1CCN(c2ncnc3c2C(C)CC3O)CC1)c1ccc(Cl)cc1    101%

###

# Tested on: 254851-301-R-J1-PDC spheroids, viability % test/control
# assayComment: Anticancer human tumor 254851-301-R-J1-PDC cell line growth inhibition [TAK];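 further: spheroids exposed to drugs for seven days before viability readout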;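 on viability, T/C: 100% = DMSO vehicle control viability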
# measurementSetup: second compound 0.3 µM; first compound 0.1 µM; stronger effect = lower value; spheroids with HUVEC and MSC
propertyName: viability, T/C (%)

1) COC1CC2CCC(C)C(O)(O2)C(=O)C(=O)N2CCCCC2C(=O)OC(C(C)CC2CCC(OCCO)C(OC)C2)CC(=O)C(C)C=C(C)C(O)C(OC)C(=O)C(C)CC(C)C=CC=CC=C1C (stereo unspecified) + CC(C)NCC(C(=O)N1CCN(c2ncnc3c2C(C)CC3O)CC1)c1ccc(Cl)cc1    91.7
2) CC(C)CC(NC(=O)CNC(=O)c1cc(Cl)ccc1Cl)B1OC(=O)CC(CC(=O)O)(C(=O)O)O1 (stereo unspecified) + CC(C)NCC(C(=O)N1CCN(c2ncnc3c2C(C)CC3O)CC1)c1ccc(Cl)cc1    22.2
3) COc1c(OCCCN2CCOCC2)ccc2c3n(c(=NC(=O)c4cnc(N)nc4)nc12)CCN3 + CC(C)NCC(C(=O)N1CCN(c2ncnc3c2C(C)CC3O)CC1)c1ccc(Cl)cc1    78.1
4) Cc1nc(NC(=O)N2CCCC2C(N)=O)sc1-c1ccnc(C(C)(C)C(F)(F)F)c1 (stereo unspecified) + CC(C)NCC(C(=O)N1CCN(c2ncnc3c2C(C)CC3O)CC1)c1ccc(Cl)cc1    102
5) CC(C)n1nc(-c2ccc3oc(N)nc3c2)c2c(N)ncnc21 + CC(C)NCC(C(=O)N1CCN(c2ncnc3c2C(C)CC3O)CC1)c1ccc(Cl)cc1    32.4
6) CC(C)(C)c1nc(-c2cccc(NS(=O)(=O)c3c(F)cccc3F)c2F)c(-c2ccnc(N)n2)s1 + CC(C)NCC(C(=O)N1CCN(c2ncnc3c2C(C)CC3O)CC1)c1ccc(Cl)cc1    103

###

Listed here are molecules together with their documented IC50.
# System: 254851-301-R-J1-PDC spheroids, viability % test/control
# assayComment: Anticancer human tumor 254851-301-R-J1-PDC cell line growth inhibition [TAK];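 further: spheroids exposed to drugs for seven days before viability readout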
# measurementSetup: curve of first compound; second compound 3 µM; spheroids with HUVEC and MSC
propertyName: IC50

1. CC(C)CC(NC(=O)C(Cc1ccccc1)NC(=O)c1cnccn1)B(O)O (stereo not given) + CC(C)NCC(C(=O)N1CCN(c2ncnc3c2C(C)CC3O)CC1)c1ccc(Cl)cc1    > 10 nM
2. CC(=O)Nc1cccc(-n2c(=O)n(C3CC3)c(=O)c3c(Nc4ccc(I)cc4F)n(C)c(=O)c(C)c32)c1 + CC(C)NCC(C(=O)N1CCN(c2ncnc3c2C(C)CC3O)CC1)c1ccc(Cl)cc1    18.6 nM
3. Cn1cnc2c(F)c(Nc3ccc(Br)cc3Cl)c(C(=O)NOCCO)cc21 + CC(C)NCC(C(=O)N1CCN(c2ncnc3c2C(C)CC3O)CC1)c1ccc(Cl)cc1    1630 nM
4. CC(C)n1nc(-c2ccc3oc(N)nc3c2)c2c(N)ncnc21 + CC(C)NCC(C(=O)N1CCN(c2ncnc3c2C(C)CC3O)CC1)c1ccc(Cl)cc1    44.4 nM
5. CC(C)CC(NC(=O)CNC(=O)c1cc(Cl)ccc1Cl)B1OC(=O)CC(CC(=O)O)(C(=O)O)O1 (stereo not given) + CC(C)NCC(C(=O)N1CCN(c2ncnc3c2C(C)CC3O)CC1)c1ccc(Cl)cc1    49.2 nM
6. COc1c(OCCCN2CCOCC2)ccc2c3n(c(=NC(=O)c4cnc(N)nc4)nc12)CCN3 + CC(C)NCC(C(=O)N1CCN(c2ncnc3c2C(C)CC3O)CC1)c1ccc(Cl)cc1    > 1000 nM
7. Cc1nc(NC(=O)N2CCCC2C(N)=O)sc1-c1ccnc(C(C)(C)C(F)(F)F)c1 (stereo not given) + CC(C)NCC(C(=O)N1CCN(c2ncnc3c2C(C)CC3O)CC1)c1ccc(Cl)cc1    > 10000 nM
8. CC(C)(C)c1nc(-c2cccc(NS(=O)(=O)c3c(F)cccc3F)c2F)c(-c2ccnc(N)n2)s1 + CC(C)NCC(C(=O)N1CCN(c2ncnc3c2C(C)CC3O)CC1)c1ccc(Cl)cc1    > 10000 nM
9. CCCS(=O)(=O)Nc1ccc(F)c(C(=O)c2c[nH]c3ncc(-c4ccc(Cl)cc4)cc23)c1F + CC(C)NCC(C(=O)N1CCN(c2ncnc3c2C(C)CC3O)CC1)c1ccc(Cl)cc1    > 100000 nM
10. COC1CC2CCC(C)C(O)(O2)C(=O)C(=O)N2CCCCC2C(=O)OC(C(C)CC2CCC(OCCO)C(OC)C2)CC(=O)C(C)C=C(C)C(O)C(OC)C(=O)C(C)CC(C)C=CC=CC=C1C (stereo not given) + CC(C)NCC(C(=O)N1CCN(c2ncnc3c2C(C)CC3O)CC1)c1ccc(Cl)cc1    > 100 nM
